Where do these numbers come from? They come from the supplement of paper PMC12042874.

assay: amyloid nucleation score (Sup35N fusion, yeast selection) (log enrichment); library NNK2; higher = more nucleation; inactive = no reads after selection;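 note: zero at mode of non-aggregating sequences after 7 days selection at 30°C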

>  <Input Sequence>
FSQGYWLLMA

>  <amyloid nucleation score>
0.305

$$$$
>  <Input Sequence>
KDLPTSYIYMFDY

>  <amyloid nucleation score>
-1.2

$$$$
>  <Input Sequence>
GFYIKVFNSEWYALNLDVRL

>  <amyloid nucleation score>
4.67

$$$$
>  <Input Sequence>
APTCSKCCIFMQC

>  <amyloid nucleation score>
5.99

$$$$
>  <Input Sequence>
PCIWGDVVL

>  <amyloid nucleation score>
0.506

$$$$
>  <Input Sequence>
TWDSRYGVACLV

>  <amyloid nucleation score>
-0.325

$$$$
>  <Input Sequence>
IEGYYGASRVRGMSMGLLWV

>  <amyloid nucleation score>
-0.17

$$$$
>  <Input Sequence>
LYGNYDTSYTLIQVISLRNG

>  <amyloid nucleation score>
6.2

$$$$

----------
Reported values of amyloid nucleation score for individual entries
experiment: amyloid nucleation score (Sup35N fusion, yeast selection) (log enrichment); library NNK1; higher = more nucleation; inactive = no reads after selection

>  <Substance>
VVVEKLAQLNHVKAEPMVSG

>  <amyloid nucleation score>
0.335

$$$$
>  <Substance>
RWLDYYADNARHVSQTLRRR

>  <amyloid nucleation score>
-0.575

$$$$
>  <Substance>
QVRRRVGILRLWFEKWVIGR

>  <amyloid nucleation score>
0.372

$$$$
>  <Substance>
CFIIIQPCANGWWYRCRSCV

>  <amyloid nucleation score>
-0.236

$$$$
>  <Substance>
VSIRTGGTCHYT

>  <amyloid nucleation score>
0.123

$$$$
>  <Substance>
STRSLSCLFLNRTSHCLGTL

>  <amyloid nucleation score>
-0.721

$$$$
>  <Substance>
WLEYYYCMLHDELIS

>  <amyloid nucleation score>
0.109

$$$$
>  <Substance>
DMEYGGKRHNNCSDLIITNC

>  <amyloid nucleation score>
-0.726

$$$$
>  <Substance>
DAWGTVRYSIGFKGVVAMTS

>  <amyloid nucleation score>
0.149

$$$$
>  <Substance>
YRPMYMVAEQWYYK

>  <amyloid nucleation score>
0.896

$$$$
>  <Substance>
LVFFHISR

>  <amyloid nucleation score>
4.94

$$$$
>  <Substance>
VHASYIVRIRHLSGILEGAV

>  <amyloid nucleation score>
0.369

$$$$
>  <Substance>
RGILLSPSLLVYRLTT

>  <amyloid nucleation score>
-0.096

$$$$
>  <Substance>
MSRIVF

>  <amyloid nucleation score>
-0.003

$$$$
>  <Substance>
HTFSRRTGAGGSAKLT

>  <amyloid nucleation score>
0.972

$$$$
>  <Substance>
PLYSYADEVVDGKGSCERNC

>  <amyloid nucleation score>
0.946

$$$$

----------
assay: amyloid nucleation score (Sup35N fusion, yeast selection) (log enrichment); library NNK2; higher = more nucleation; inactive = no reads after selection

>  <Substance>
SWKDYHN

>  <amyloid nucleation score>
inactive

$$$$
>  <Substance>
MKRLPDSDIMVVPIVHKINL

>  <amyloid nucleation score>
inactive

$$$$
>  <Substance>
SSLVNTACDTL

>  <amyloid nucleation score>
-0.036

$$$$
>  <Substance>
CCKITDMAPNPVETWKYSKR

>  <amyloid nucleation score>
0.786

$$$$
>  <Substance>
STTVTLGQSICFYLSCGLRD

>  <amyloid nucleation score>
9.21

$$$$
>  <Substance>
TVSMNMRCCVECHYIKERYL

>  <amyloid nucleation score>
4.16

$$$$
>  <Substance>
KRYLTGSEVIVGWCC

>  <amyloid nucleation score>
0.329

$$$$
>  <Substance>
GCLLRCDKRGGLRPSW

>  <amyloid nucleation score>
0.66

$$$$
>  <Substance>
IRNTLPAAIDVSATVTFVIL

>  <amyloid nucleation score>
3.17

$$$$

----------
test: amyloid nucleation score (Sup35N fusion, yeast selection) (log enrichment); library NNK2; higher = more nucleation; inactive = no reads after selection
# class assignment by measured amyloid nucleation score: class 1 = under -0.03, class 2 = from -0.03 up to 1, class 3 = 1 and over

>  <Input Sequence>
KNKWRSMV

>  <Category Label>
class 2

$$$$
>  <Input Sequence>
FRYCAGLMTYRLEFG

>  <Category Label>
class 3

$$$$
>  <Input Sequence>
FFSNIFIEASVCELGSNANV

>  <Category Label>
class 3

$$$$
>  <Input Sequence>
SAVHENVIGVFFGVLVYSNA

>  <Category Label>
class 3

$$$$
>  <Input Sequence>
SPFFVMLIITFTRMVEDLRM

>  <Category Label>
class 1

$$$$
>  <Input Sequence>
LYHDEALVWNLRDVSRIYRL

>  <Category Label>
class 3

$$$$
>  <Input Sequence>
SNGTWLKNLGGPPPGRAMPW

>  <Category Label>
class 2

$$$$
>  <Input Sequence>
SCGRMMTVVMIWGNWRSWSS

>  <Category Label>
class 1

$$$$
>  <Input Sequence>
QMLDTRSLGNDYNYNVYSLA

>  <Category Label>
class 1

$$$$
>  <Input Sequence>
IMSSHKSAYRVFLHGLCRMV

>  <Category Label>
class 2

$$$$
>  <Input Sequence>
VNYYSFLLVFPGLQLTREIN

>  <Category Label>
class 3

$$$$
>  <Input Sequence>
FTSLGMQLCYWHRISLCVSW

>  <Category Label>
class 1

$$$$
>  <Input Sequence>
KGWWGVIRDYREWFTGSRWG

>  <Category Label>
class 2

$$$$
>  <Input Sequence>
LLNFYGGMWRGYLTLRYVFG

>  <Category Label>
class 2

$$$$

----------
experiment: amyloid nucleation score (Sup35N fusion, yeast selection) (log enrichment); library NNK1; higher = more nucleation; inactive = no reads after selection
Observable: amyloid nucleation score

>  <Substance>
GVTLYRRGIFGMSL

>  <Observable>
amyloid nucleation score

>  <Readout Value>
0.338

$$$$
>  <Substance>
GCVGGWSVEFITLGYWSQRG

>  <Observable>
amyloid nucleation score

>  <Readout Value>
1.17

$$$$
>  <Substance>
DMGSHIARSTKMVPICGGSR

>  <Observable>
amyloid nucleation score

>  <Readout Value>
-0.259

$$$$
>  <Substance>
MGTSITI

>  <Observable>
amyloid nucleation score

>  <Readout Value>
-0.202

$$$$
>  <Substance>
CRRRPSSDELSVLWDAEGRY

>  <Observable>
amyloid nucleation score

>  <Readout Value>
0.009

$$$$
>  <Substance>
KWDLRPYFFLMVLEQGCSMW

>  <Observable>
amyloid nucleation score

>  <Readout Value>
-0.506

$$$$
>  <Substance>
EDKYFA

>  <Observable>
amyloid nucleation score

>  <Readout Value>
0.323

$$$$
>  <Substance>
VIRCRKFRTVWILFLAISLV

>  <Observable>
amyloid nucleation score

>  <Readout Value>
inactive

$$$$
>  <Substance>
IQNISLGVVGVMWNPHTCVV

>  <Observable>
amyloid nucleation score

>  <Readout Value>
-0.708

$$$$
>  <Substance>
LMFKGEYCWLVIWQGLTWGV

>  <Observable>
amyloid nucleation score

>  <Readout Value>
0.278

$$$$
>  <Substance>
LSSNSYQDVSVCQGFLFFVA

>  <Observable>
amyloid nucleation score

>  <Readout Value>
3.36

$$$$
>  <Substance>
FADERIGYSIK

>  <Observable>
amyloid nucleation score

>  <Readout Value>
-0.336

$$$$
>  <Substance>
ILFFDVSSQGRTEDKVRNLG

>  <Observable>
amyloid nucleation score

>  <Readout Value>
0.088

$$$$
>  <Substance>
FLVKSIRTVGL

>  <Observable>
amyloid nucleation score

>  <Readout Value>
0.605

$$$$
>  <Substance>
LLLNTLLWSL

>  <Observable>
amyloid nucleation score

>  <Readout Value>
-1.83

$$$$
>  <Substance>
FLIIIRPISRRTCRVCFKQT

>  <Observable>
amyloid nucleation score

>  <Readout Value>
-0.246

$$$$
>  <Substance>
DYDRTSFFEDSFVTD

>  <Observable>
amyloid nucleation score

>  <Readout Value>
-0.7

$$$$
>  <Substance>
VNSSPFFMYKGVHFTWTYYS

>  <Observable>
amyloid nucleation score

>  <Readout Value>
4.51

$$$$
>  <Substance>
SFGVSNTSYWTAEKVVGYAT

>  <Observable>
amyloid nucleation score

>  <Readout Value>
0.501

$$$$
>  <Substance>
LLSMLRCYWVSRLFV

>  <Observable>
amyloid nucleation score

>  <Readout Value>
-0.079

$$$$
>  <Substance>
NFRNSGESSTNYSK

>  <Observable>
amyloid nucleation score

>  <Readout Value>
inactive

$$$$
>  <Substance>
AGCDNMIYMSTWVKWESN

>  <Observable>
amyloid nucleation score

>  <Readout Value>
0.197

$$$$
>  <Substance>
PRSMRKNSYGLGSGVRDHVQ

>  <Observable>
amyloid nucleation score

>  <Readout Value>
-0.238

$$$$
>  <Substance>
AVLLCRSESCCKYSAIANSG

>  <Observable>
amyloid nucleation score

>  <Readout Value>
-1.22

$$$$
>  <Substance>
PFVRVLTLGYAGVWNGRGKP

>  <Observable>
amyloid nucleation score

>  <Readout Value>
0.904

$$$$
>  <Substance>
FLVCLFINVVTPRTYHLWVY

>  <Observable>
amyloid nucleation score

>  <Readout Value>
-0.174

$$$$
>  <Substance>
TLNIVHLYME

>  <Observable>
amyloid nucleation score

>  <Readout Value>
4.5

$$$$
>  <Substance>
ECCWLRVTRLGLWDDVVHSE

>  <Observable>
amyloid nucleation score

>  <Readout Value>
-0.163

$$$$
>  <Substance>
RIRTIPFAPRNESPRCIGKF

>  <Observable>
amyloid nucleation score

>  <Readout Value>
-1.5

$$$$
>  <Substance>
GLPLNA

>  <Observable>
amyloid nucleation score

>  <Readout Value>
inactive

$$$$
>  <Substance>
YWSLVVAAWRMENGWHGFLL

>  <Observable>
amyloid nucleation score

>  <Readout Value>
0.059

$$$$
>  <Substance>
TFYCYLSLGSHEKKADFSNN

>  <Observable>
amyloid nucleation score

>  <Readout Value>
2.21

$$$$
>  <Substance>
VVNWIASMGCIFYRVPNVSG

>  <Observable>
amyloid nucleation score

>  <Readout Value>
4.66

$$$$
>  <Substance>
RLVSMEVCCTARLPCPYLLK

>  <Observable>
amyloid nucleation score

>  <Readout Value>
2.09

$$$$
>  <Substance>
HTFHVL

>  <Observable>
amyloid nucleation score

>  <Readout Value>
inactive

$$$$
>  <Substance>
WGKYSD

>  <Observable>
amyloid nucleation score

>  <Readout Value>
0.343

$$$$
>  <Substance>
VCCGPSSEEP

>  <Observable>
amyloid nucleation score

>  <Readout Value>
0.384

$$$$
